Target: human hERG potassium channel (Homo sapiens (Human), UniProt Q12809)
Sequence (Q12809 whole entry): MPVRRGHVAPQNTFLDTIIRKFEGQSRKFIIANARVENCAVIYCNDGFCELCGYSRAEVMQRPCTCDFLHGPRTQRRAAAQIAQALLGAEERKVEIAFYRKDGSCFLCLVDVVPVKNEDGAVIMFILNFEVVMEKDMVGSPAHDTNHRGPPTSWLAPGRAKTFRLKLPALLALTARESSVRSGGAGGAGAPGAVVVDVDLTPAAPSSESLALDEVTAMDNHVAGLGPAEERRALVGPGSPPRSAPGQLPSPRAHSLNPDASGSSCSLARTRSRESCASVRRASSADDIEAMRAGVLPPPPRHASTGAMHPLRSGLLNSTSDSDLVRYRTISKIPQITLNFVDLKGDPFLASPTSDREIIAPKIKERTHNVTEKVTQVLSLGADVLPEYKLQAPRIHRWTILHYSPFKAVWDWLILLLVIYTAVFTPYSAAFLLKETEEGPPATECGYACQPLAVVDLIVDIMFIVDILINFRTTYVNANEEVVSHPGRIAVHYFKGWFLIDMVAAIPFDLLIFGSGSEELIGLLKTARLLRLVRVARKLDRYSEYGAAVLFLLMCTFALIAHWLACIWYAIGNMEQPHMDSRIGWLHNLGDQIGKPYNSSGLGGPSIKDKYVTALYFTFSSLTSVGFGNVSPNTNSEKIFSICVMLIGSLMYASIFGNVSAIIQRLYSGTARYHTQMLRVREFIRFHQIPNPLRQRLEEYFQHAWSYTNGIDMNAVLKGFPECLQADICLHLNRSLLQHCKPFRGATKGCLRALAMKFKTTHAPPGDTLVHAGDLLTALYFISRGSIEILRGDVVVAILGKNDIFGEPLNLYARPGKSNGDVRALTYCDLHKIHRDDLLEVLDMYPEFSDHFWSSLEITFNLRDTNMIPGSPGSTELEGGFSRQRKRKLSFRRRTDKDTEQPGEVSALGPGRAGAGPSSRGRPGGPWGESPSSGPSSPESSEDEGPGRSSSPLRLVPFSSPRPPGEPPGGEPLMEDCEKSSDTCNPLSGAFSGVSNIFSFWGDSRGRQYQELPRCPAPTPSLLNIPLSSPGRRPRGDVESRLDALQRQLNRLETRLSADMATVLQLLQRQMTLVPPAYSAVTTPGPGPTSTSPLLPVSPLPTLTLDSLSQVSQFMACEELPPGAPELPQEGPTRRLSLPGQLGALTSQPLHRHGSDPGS
Experiment: hERG test (QPatch automated patch clamp, CHO cells)
Conditions: CHO cells stably expressing human hERG potassium channel
readoutName: IC50 (µM)
Hi! Could you send only the number? It should be in µM, unit omitted.

For the compound CCNC(=O)Nc1ccc(-c2sc3c(c2CN(C)C)c(=O)n(-c2ccc(OC)nn2)c(=O)n3Cc2c(F)cccc2F)cc1 [Compound 2A] , what IC50 is on record?
6.07

For the compound CONC(=O)Nc1ccc(-c2oc3c(c2CN(C)C)c(=O)n(-c2ccc(OC)nn2)c(=O)n3Cc2c(F)cccc2F)cc1 [Compound 4] , what IC50 is on record?
4.44

###

Test: Caco-2 two-way permeability and efflux
Type: in vitro ADME
Details: human; Caco-2, 120 min incubation
readoutName: Papp B→A at 120 min

For the compound CONC(=O)Nc1ccc(-c2sc3c(c2CN(C)C)c(=O)n(-c2ccc(OC)nn2)c(=O)n3Cc2c(F)cccc2F)cc1 [Relugolix, reference compound] , what Papp B→A at 120 min is on record?
13.8 ×10⁻⁶ cm/s

For the compound `CONC(=O)Nc1ccc(-c2sc3c(c2CN(C)C)c(=O)n(-c2cccc(OC(F)F)c2F)c(=O)n3Cc2c(F)cccc2F)cc1` , what Papp B→A at 120 min is on record?
18 ×10⁻⁶ cm/s

For the compound `CNc1ccc(-n2c(=O)c3c(CN(C)C)c(-c4ccc(NC(=O)NOC)cc4)sc3n(Cc3c(F)cccc3F)c2=O)nn1` , what Papp B→A at 120 min is on record?
0.504 ×10⁻⁶ cm/s

For the compound `CONC(=O)Nc1ccc(-c2sc3c(c2CN(C)C)c(=O)n(-c2ccc(OC)nn2)c(=O)n3Cc2c(F)cccc2C(F)(F)F)cc1` , what Papp B→A at 120 min is on record?
4.58 ×10⁻⁶ cm/s

For the compound `CCNC(=O)Nc1ccc(-c2sc3c(c2CN(C)C)c(=O)n(-c2ccc(OC)nn2)c(=O)n3Cc2c(F)cccc2F)cc1` , what Papp B→A at 120 min is on record?
9.65 ×10⁻⁶ cm/s

For the compound `COc1ccc(-n2c(=O)c3c(CN(C)C)c(-c4ccc(NC(=O)NOCC(F)F)cc4)sc3n(Cc3c(F)cccc3F)c2=O)nn1` , what Papp B→A at 120 min is on record?
15.6 ×10⁻⁶ cm/s

For the compound `CONC(=O)Nc1ccc(-c2oc3c(c2CN(C)C)c(=O)n(-c2ccc(OC)nn2)c(=O)n3Cc2c(F)cccc2F)cc1` , what Papp B→A at 120 min is on record?
29.4 ×10⁻⁶ cm/s

###

Experiment: Pharmacokinetics in SD rats (i.v. and i.g.)
Assay type: in vivo
Settings: male, Sprague-Dawley (SD), rat, plasma, iv, i.v 1 mg/kg
Excerpt: Instrument: water purification equipment, Millipore; electronic balance, METTLER TOLEDO; high-speed benchtop centrifuge, Thermo; water bath thermostatic oscillator, Shanghai Yiheng Technical Co., Ltd.; vortex oscillator, Thermo; LC-MS/MS, AB SCIEX. Method: all compounds were formulated in DMSO and 20% solutol. […] The plasma and pituitary homogenates were pre-treated and then analyzed by LC-MS/MS to determine the concentration of the test substances in the plasma and the pituitary. […]
I'd appreciate it if you could supply half-life values for the items below.
Hi! Could you send only the number? It should be in h, unit omitted.

For the compound CONC(=O)Nc1ccc(-c2sc3c(c2CN(C)C)c(=O)n(-c2cccc(OC(F)F)c2F)c(=O)n3Cc2c(F)cccc2F)cc1 [Compound 3] , what half-life is on record?
4.34

For the compound CCNC(=O)Nc1ccc(-c2sc3c(c2CN(C)C)c(=O)n(-c2ccc(OC)nn2)c(=O)n3Cc2c(F)cccc2F)cc1 [Compound 2A] , what half-life is on record?
6.64

###

I'd appreciate it if you could supply efflux ratio at 120 min values for the items below.
Experiment: Caco-2 two-way permeability and efflux
Type: in vitro ADME
Details: human, Caco-2; read-out: Efflux ratio
Hey, just send me the number, nothing else.

For the compound CONC(=O)Nc1ccc(-c2oc3c(c2CN(C)C)c(=O)n(-c2ccc(OC)nn2)c(=O)n3Cc2c(F)cccc2F)cc1 [Compound 4] , what efflux ratio at 120 min is on record?
316

For the compound CCNC(=O)Nc1ccc(-c2sc3c(c2CN(C)C)c(=O)n(-c2ccc(OC)nn2)c(=O)n3Cc2c(F)cccc2F)cc1 [Compound 2A] , what efflux ratio at 120 min is on record?
1180

###

I'd appreciate it if you could supply bioavailability values for the items below.
Assay: Pharmacokinetics in SD rats (i.v. and i.g.)
Format: in vivo
Details: male, Sprague-Dawley (SD), rat, plasma, po, i.g 12 mg/kg vs i.v 1 mg/kg, read-out: F (absolute bioavailability)
Hi! Could you send only the number? It should be in %, unit omitted.

For the molecule `CONC(=O)Nc1ccc(-c2sc3c(c2CN(C)C)c(=O)n(-c2cccc(OC(F)F)c2F)c(=O)n3Cc2c(F)cccc2F)cc1` , what bioavailability is on record?
18.3

For the molecule CONC(=O)Nc1ccc(-c2sc3c(c2CN(C)C)c(=O)n(-c2ccc(OC)nn2)c(=O)n3Cc2c(F)cccc2F)cc1 [Relugolix, reference compound] , what bioavailability is on record?
5.74

For the molecule `CCNC(=O)Nc1ccc(-c2sc3c(c2CN(C)C)c(=O)n(-c2ccc(OC)nn2)c(=O)n3Cc2c(F)cccc2F)cc1` , what bioavailability is on record?
6.33

###

Assay: Pharmacokinetics in SD rats (i.v. and i.g.)
Assay type: in vivo
Settings: male, rat, plasma, intravenous, i.v 1 mg/kg
readoutName: AUC(0-t) (ng·h/mL)
Hi! Could you send only the number? It should be in ng·h/mL, unit omitted.

For the compound CONC(=O)Nc1ccc(-c2sc3c(c2CN(C)CCOC(F)(F)F)c(=O)n(-c2ccc(OC)nn2)c(=O)n3Cc2c(F)cccc2F)cc1 [Compound 1] , what AUC(0-t) is on record?
992

###

Target: human GnRHR (Homo sapiens (Human))
Sequence (P30968 whole entry): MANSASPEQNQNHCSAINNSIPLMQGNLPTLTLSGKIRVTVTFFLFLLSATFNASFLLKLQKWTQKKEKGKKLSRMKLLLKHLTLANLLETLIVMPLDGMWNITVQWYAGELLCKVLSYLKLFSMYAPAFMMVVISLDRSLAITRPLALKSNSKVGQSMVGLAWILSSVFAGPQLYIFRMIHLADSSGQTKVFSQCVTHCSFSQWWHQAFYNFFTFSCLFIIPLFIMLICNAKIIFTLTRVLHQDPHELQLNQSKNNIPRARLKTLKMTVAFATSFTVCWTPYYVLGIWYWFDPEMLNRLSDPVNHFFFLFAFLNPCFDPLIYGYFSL
Assay: In vitro antagonistic activity screening (FLIPR calcium fluorescence, Leuprolide acetate stimulation)
Assay type: cell-based
Details: HEK293 cells stably expressing human GnRHR; read-out: Functional IC50
I'd appreciate it if you could supply IC50 values for the items below.
Hi! Could you send only the number? It should be in nM, unit omitted.

Fill in the recorded IC50 for this compound, with human GnRHR (Homo sapiens (Human)) as test system: CONC(=O)Nc1ccc(-c2oc3c(c2CN(C)C)c(=O)n(-c2ccc(OC)nn2)c(=O)n3Cc2c(F)cccc2F)cc1 [Compound 4]
12

Fill in the recorded IC50 for this compound, with human GnRHR (Homo sapiens (Human)) as test system: CCNC(=O)Nc1ccc(-c2sc3c(c2CN(C)C)c(=O)n(-c2ccc(OC)nn2)c(=O)n3Cc2c(F)cccc2F)cc1 [Compound 2A]
1.84

###

Test: Pharmacokinetics in SD rats (i.v. and i.g.)
Type: in vivo
Conditions: male, rat, plasma, oral, i.g 12 mg/kg
readoutName: MRT last
# output: numeric value plus its unit

For the molecule `CONC(=O)Nc1ccc(-c2sc3c(c2CN(C)CCOC(F)(F)F)c(=O)n(-c2ccc(OC)nn2)c(=O)n3Cc2c(F)cccc2F)cc1` , what MRT last is on record?
6.02 h

###

I'd appreciate it if you could supply MRT last values for the items below.
Test: Pharmacokinetics in SD rats (i.v. and i.g.)
Format: in vivo
Conditions: male, Sprague-Dawley (SD), rat, plasma, iv, i.v 1 mg/kg
Hi! Could you send only the number? It should be in h, unit omitted.

For the compound `CONC(=O)Nc1ccc(-c2sc3c(c2CN(C)C)c(=O)n(-c2cccc(OC(F)F)c2F)c(=O)n3Cc2c(F)cccc2F)cc1` , what MRT last is on record?
3.83

For the compound `CCNC(=O)Nc1ccc(-c2sc3c(c2CN(C)C)c(=O)n(-c2ccc(OC)nn2)c(=O)n3Cc2c(F)cccc2F)cc1` , what MRT last is on record?
4.14

###

Assay: Pharmacokinetics in SD rats (i.v. and i.g.)
Type: in vivo
Conditions: male, Sprague-Dawley (SD), rat, plasma, iv, i.v 1 mg/kg
Excerpt: Instrument: water purification equipment, Millipore; electronic balance, METTLER TOLEDO; high-speed benchtop centrifuge, Thermo; water bath thermostatic oscillator, Shanghai Yiheng Technical Co., Ltd.; vortex oscillator, Thermo; LC-MS/MS, AB SCIEX. Method: all compounds were formulated in DMSO and 20% solutol. […] The plasma and pituitary homogenates were pre-treated and then analyzed by LC-MS/MS to determine the concentration of the test substances in the plasma and the pituitary. […]
I'd appreciate it if you could supply AUC(0-t) values for the items below.
Hi! Could you send only the number? It should be in µg·h/mL, unit omitted.

For the compound `CONC(=O)Nc1ccc(-c2sc3c(c2CN(C)C)c(=O)n(-c2cccc(OC(F)F)c2F)c(=O)n3Cc2c(F)cccc2F)cc1` , what AUC(0-t) is on record?
0.271

For the compound `CCNC(=O)Nc1ccc(-c2sc3c(c2CN(C)C)c(=O)n(-c2ccc(OC)nn2)c(=O)n3Cc2c(F)cccc2F)cc1` , what AUC(0-t) is on record?
0.487

Reference source: patent US20250000864A1
